- System: 695427-040-R-J1-PDC complex spheroid viability;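 note: viability read after seven days of drug exposure; 100% = DMSO vehicle control viability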
- measurement protocol: Anticancer human tumor 695427-040-R-J1-PDC patient-derived colon adenocarcinoma cell line growth inhibition [RAS]
- measurement context: second compound 0.0316 µM; first compound 0.0316 µM; hits give low values
- Description: RAS pathway inhibitors in Combinations in Complex Spheroids A high-throughput screen of multi-cell type tumor spheroids was designed to identify active combinations of RAS pathway inhibitors and targeted small molecules. Complex spheroids include a stromal component modeled by human endothelial cells (HUVEC) and fibroblasts modeled by human mesenchymal stem cells (MSCs). […] Compounds. […] If the clinical Cmax for an agent had not been determined, the highest concentration tested was 10 microM. […]
Quick reference: viability, T/C of the listed items.

[
  {
    "compound": "CC1(O)CCCC1n1c(=O)c(C(F)F)cc2cnc(NC3CCN(S(C)(=O)=O)CC3)nc21 (configuration not stated) + C#Cc1c(F)ccc2cc(O)cc(-c3ncc4c(N5CC6CCC(C5)N6)nc(OCC56CCCN5CC(F)C6)nc4c3F)c12",
    "target or system": "695427-040-R-J1-PDC complex spheroid viability",
    "viability, T/C [%]": 95.4
  },
  {
    "compound": "CC(=O)OC12COC1CC(O)C1(C)C(=O)C(O)C3=C(C)C(OC(=O)C(O)C(NC(=O)OC(C)(C)C)c4ccccc4)CC(O)(C(OC(=O)c4ccccc4)C21)C3(C)C (configuration not stated) + C#Cc1c(F)ccc2cc(O)cc(-c3ncc4c(N5CC6CCC(C5)N6)nc(OCC56CCCN5CC(F)C6)nc4c3F)c12",
    "target or system": "695427-040-R-J1-PDC complex spheroid viability",
    "viability, T/C [%]": 67.3
  },
  {
    "compound": "Nc1ccn(C2OC(CO)C(O)C2(F)F)c(=O)n1 (configuration not stated) + C=CC(=O)N1CCN(c2nc(OCC3CCCN3C)nc3c(F)c(-c4nc(N)cc(C)c4C(F)(F)F)c(Cl)cc23)C(C)C1",
    "target or system": "695427-040-R-J1-PDC complex spheroid viability",
    "viability, T/C [%]": 77.9
  },
  {
    "compound": "CC(C)n1nc(-c2ccc3oc(N)nc3c2)c2c(N)ncnc21 + C=CC(=O)N1CCN(c2nc(OCC3CCCN3C)nc3c(F)c(-c4nc(N)cc(C)c4C(F)(F)F)c(Cl)cc23)C(C)C1",
    "target or system": "695427-040-R-J1-PDC complex spheroid viability",
    "viability, T/C [%]": 76.5
  },
  {
    "compound": "CCN1CCN(Cc2ccc(Nc3ncc(F)c(-c4cc(F)c5nc(C)n(C(C)C)c5c4)n3)nc2)CC1 + C#Cc1c(F)ccc2cc(O)cc(-c3ncc4c(N5CC6CCC(C5)N6)nc(OCC56CCCN5CC(F)C6)nc4c3F)c12",
    "target or system": "695427-040-R-J1-PDC complex spheroid viability",
    "viability, T/C [%]": 85.8
  },
  {
    "compound": "CC(Nc1ccc2c(c1)OCCn1cc(N3C(=O)OCC3C(F)F)nc1-2)C(N)=O (configuration not stated) + C=CC(=O)N1CCN(c2nc(OCC3CCCN3C)nc3c(F)c(-c4nc(N)cc(C)c4C(F)(F)F)c(Cl)cc23)C(C)C1",
    "target or system": "695427-040-R-J1-PDC complex spheroid viability",
    "viability, T/C [%]": 90.7
  },
  {
    "compound": "CCC(CC)c1cc(NC2CCC(N)C2)n2nccc2n1 (configuration not stated) + C=CC(=O)N1CCN(c2nc(OCC3CCCN3C)nc3c(F)c(-c4nc(N)cc(C)c4C(F)(F)F)c(Cl)cc23)C(C)C1",
    "target or system": "695427-040-R-J1-PDC complex spheroid viability",
    "viability, T/C [%]": 105
  }
]
